Catalogue of normalized growth values
Test: chemical genetic growth profiling, strain panel (AID 1159580);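 also: tested at 20 µM; growth read once vehicle control cultures reached saturation at 30 °C; 1 = growth at the plate median or of vehicle wells; lower values mean less growth of the strain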
Settings: S. cerevisiae deletion strains, growth OD, locus YLL001W, strain dnm1, stronger effect = lower value
Screen size: about 5,500 compounds; about 2,000 (36%) were called active. About 18% were inconclusive and are not listed. The list shows a part of the results.
Give your answer as a number; write no unit.

The following compounds have reported results that may help.
- COMPOUND: "Cc1cc(C(C)(C)C)c(O)c(C(C)(C)C)c1"
  normalized growth: 0.99
- COMPOUND: "COc1cc(C(=O)O[C@H]2CC[C@@]3(C)[C@@H]4CC[C@H]5[C@]6(O)C[C@H](O)[C@@]7(O)[C@@H](CN8C[C@@H](C)CC[C@H]8[C@@]7(C)O)[C@]6(O)C[C@@]53O[C@]24O)cc(OC)c1OC"
  normalized growth: 1.01
- COMPOUND: "Nc1ccc(S(=O)(=O)Nc2ccnn2-c2ccccc2)cc1"
  normalized growth: 0.979
- COMPOUND: "COC(=O)C[C@H]1C(C)(C)C(=O)[C@@H]2CC3C4=CC(=O)O[C@@H](c5ccoc5)[C@]4(C)CCC3[C@@]1(C)C2=O (stereo partly specified)"
  normalized growth: 0.979
- COMPOUND: "CCCOc1ccccc1-c1nc2n[nH]nc2c(=O)[nH]1"
  normalized growth: 0.995
- COMPOUND: "CCC(C)C(=O)O[C@H]1[C@H](O)C2C(CN3CC(C)CCC3[C@@]2(C)O)C2C[C@]34O[C@]5(O)C(OC(=O)C(C)(O)CC)CC[C@@]3(C)C5C(OC(C)=O)[C@@H](OC(C)=O)C4[C@@]21O (stereo partly specified)"
  normalized growth: 1.02
- COMPOUND: "COc1cc(N)c(Cl)cc1C(=O)NC1CCN(Cc2ccccc2)CC1"
  normalized growth: 0.99
- COMPOUND: "CC(=O)NCc1c(I)c(NC(C)=O)c(I)c(C(=O)O)c1I"
  normalized growth: 0.999

// normalized growth lookup, compound = CC(=O)/C=C\[C@@H]1[C@@]2(C)CCCC(C)(C)C2CC[C@@]1(C)O (stereo partly specified) , result: 1.01

// normalized growth lookup, compound = NC(N)=N/N=C/c1c(Cl)cccc1Cl , result: 1.01

// normalized growth lookup, compound = CCN1C[C@]2(OC(=O)c3ccccc3NC(C)=O)CCC(OC)[C@]34C1[C@H](CC23)[C@@]1(O)CC(OC)[C@H]2CC4C1(O)[C@H]2OC (stereo partly specified) , result: 0.993

###

Assay: chemical genetic growth profiling, strain panel (AID 1159580);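 also: tested at 20 µM; growth read once vehicle control cultures reached saturation at 30 °C; 1 = growth at the plate median or of vehicle wells; lower values mean less growth of the strain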
Conditions: S. cerevisiae deletion strains, growth OD, locus YAL013W, strain DEP1, stronger effect = lower value
Among all 5,500 compounds or so, about 2,000 (36%) were called active. Roughly 18% stayed inconclusive and do not appear here. This is one part of the list.
MEASUREMENT_TYPE: normalized growth
Give your answer as a number; write no unit.

- MOLECULE: "COC(=O)c1cccc(NC(=O)CC2C(=O)NCCN2C(=O)c2cccs2)c1 (stereo not given)"
  normalized growth: 1.02

// normalized growth lookup, molecule = N#CC(C#N)=CNc1cccc(N)n1 , result: 0.995

// normalized growth lookup, molecule = C[C@@H]1O[C@H](C[N+](C)(C)C)C[C@H]1O , result: 1.01

// normalized growth lookup, molecule = N#CC(NCc1ccccc1)c1ccc(Cl)c(Cl)c1 (stereo not given) , result: 1

// normalized growth lookup, molecule = Cc1ccc(S(=O)(=O)NC(=O)NN2CC3CCCC3C2)cc1 (stereo not given) , result: 1.01

// normalized growth lookup, molecule = N=C(N)c1ccc(N)cc1 , result: 1.01

// normalized growth lookup, molecule = O=c1c2ccccc2nc2n1CCc1c-2[nH]c2ccccc12 , result: 1.02

// normalized growth lookup, molecule = CC(=O)NC(C(=O)O)C(C)(C)SN=O (stereo not given) , result: 1.02

// normalized growth lookup, molecule = Cc1cc(O)cc(=O)o1 , result: 0.999
